# measurement.target: human capsaicin receptor (VR1) (Homo sapiens, UniProt Q8NER1)
# Sequence (Q8NER1 whole entry): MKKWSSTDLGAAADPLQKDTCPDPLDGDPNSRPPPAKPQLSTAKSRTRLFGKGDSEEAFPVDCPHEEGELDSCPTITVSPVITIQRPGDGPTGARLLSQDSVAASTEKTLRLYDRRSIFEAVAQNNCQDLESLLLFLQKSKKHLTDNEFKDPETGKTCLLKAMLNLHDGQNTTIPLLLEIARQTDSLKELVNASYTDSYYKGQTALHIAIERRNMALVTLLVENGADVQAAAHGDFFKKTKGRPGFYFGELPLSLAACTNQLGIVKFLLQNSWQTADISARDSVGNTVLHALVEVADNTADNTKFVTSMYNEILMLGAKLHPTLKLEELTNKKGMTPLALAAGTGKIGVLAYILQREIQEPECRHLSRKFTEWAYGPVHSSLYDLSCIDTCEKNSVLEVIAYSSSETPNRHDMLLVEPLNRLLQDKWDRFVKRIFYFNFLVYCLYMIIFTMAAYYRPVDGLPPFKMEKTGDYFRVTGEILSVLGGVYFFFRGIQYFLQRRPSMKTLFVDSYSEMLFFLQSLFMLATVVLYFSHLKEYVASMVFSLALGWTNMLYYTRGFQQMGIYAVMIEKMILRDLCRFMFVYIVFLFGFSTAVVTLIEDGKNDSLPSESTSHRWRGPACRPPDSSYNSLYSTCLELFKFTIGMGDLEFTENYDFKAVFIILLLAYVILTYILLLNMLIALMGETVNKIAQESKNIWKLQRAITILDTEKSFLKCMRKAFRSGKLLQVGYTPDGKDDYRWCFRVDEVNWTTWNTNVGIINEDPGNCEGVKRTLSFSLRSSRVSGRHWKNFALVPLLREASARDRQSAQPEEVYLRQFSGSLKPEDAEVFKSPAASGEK
# method.summary: Capsaicin receptor binding assay ([3H]RTX competition, VR1-transfected HEK293 membranes)
Collected Ki values appear next to each entry.
metric.name: Ki

- CN1CCC(c2nc(Nc3ccc(C(C)(C)C)cc3)c3ccc(-c4ncccc4Cl)nc3n2)CC1 [Compound 769]: < 1000 nM
- Cc1cccnc1-c1ccc2c(Nc3ccc(C(F)(F)F)cc3)nc(COC(C)C)nc2c1 [Compound 91]: < 1000 nM
- O=C(NCC1CCCO1)c1nc(Nc2ccc(C(F)(F)F)cc2)c2ccc(-c3ncccc3C(F)(F)F)nc2n1 (centres unmarked) [Compound 457]: < 1000 nM
- CCOc1ccc(Nc2nc(COCC(C)C)nc3nc(-c4ncccc4Cl)ccc23)cc1 [Compound 264]: < 1000 nM
- COCc1cc(Nc2ccc(S(=O)(=O)C(F)(F)F)cc2)c2ccc(-c3ncccc3C(F)(F)F)nc2n1 [Compound 308]: < 1000 nM
- FC(F)(F)c1ccc(Nc2nc(COCc3ccccc3)nc3cc(-c4ncccc4C(F)(F)F)ccc23)nc1 [Compound 26]: < 1000 nM
- COCc1nc(Nc2ccc(C(C)(C)C)cc2)c2ccc(-c3ncccc3C)nc2n1 [Compound 95]: < 1000 nM
- CCN1CCC(c2nc(Nc3ccc(C(F)(F)F)cc3)c3ccc(-c4ncccc4C(F)(F)F)cc3n2)CC1 [Compound 689]: < 1000 nM

====

The following compounds are listed with their measured pKi values.
# measurement.target: human capsaicin receptor (VR1) (Homo sapiens, UniProt Q8NER1)
# method.summary: Capsaicin receptor binding assay ([3H]RTX competition, VR1-transfected HEK293 membranes)
pKi: −log10 of the molar value.
metric.name: pKi

• C=CCN(C)Cc1nc(Nc2ccc(C(F)(F)F)cc2)c2ncc(-c3ncccc3C(F)(F)F)cc2n1 = > 6.00
• CCCOC(=O)N1CCN(CCc2nc(Nc3ccc(C(F)(F)F)cc3)c3ccc(-c4ncccc4C(F)(F)F)cc3n2)CC1 = > 6.00
• CCC(c1ccccc1)N(C)CCc1nc(Nc2ccc(C(F)(F)F)cc2)c2ccc(-c3ncccc3C(F)(F)F)cc2n1 (centres unmarked) = > 6.00
• CCCC(=O)c1ccc(Nc2nc(COC)nc3cc(-c4ncccc4C(F)(F)F)cnc23)cc1 = > 6.00
• CCCS(=O)(=O)c1ccc(Nc2nc(CN3C[C@@H](C)O[C@@H](C)C3)nc3cc(-c4ncccc4C(F)(F)F)cnc23)cc1 = > 6.00
• COCc1nc(Nc2ccc(C(C)C(F)(F)F)cc2)c2ccc(-c3ncccc3C(F)(F)F)nc2n1 (centres unmarked) = > 6.00
• CCOCc1nc(Nc2ccc(C(F)(F)F)cc2)c2ccc(-c3ncccc3C)nc2n1 = > 6.00
• CC(C)(C)c1ccc(Nc2nc(CN3CCCS3(=O)=O)nc3cc(-c4ncccc4C(F)(F)F)ccc23)cc1 = > 6.00
• COCc1nc(Nc2ccc(C3(C(=O)N4C[C@@H](C)O[C@@H](C)C4)CCC3)cc2)c2ccc(-c3ncccc3C(F)(F)F)nc2n1 = > 6.00
• COCc1nc(Nc2ccc(C(C)(C)C)cc2)c2ccc(-c3ncccc3Cl)nc2n1 = > 6.00
• C[C@@H]1CN(Cc2nc(Nc3ccc(C(F)(F)F)cc3)c3ccc(-c4ccccn4)cc3n2)C[C@H](C)O1 = > 6.00
• COCc1nc(Nc2ccc(OC(F)(F)F)cc2)c2ccc(-c3ncccc3C)nc2n1 = > 6.00
• CC(C)c1ccc(Nc2nc(CO)nc3cc(-c4ncccc4Cl)ccc23)cc1 = > 6.00
• OCc1nc(Nc2ccc(C(F)(F)F)cc2)c2ncc(-c3ncccc3Cl)cc2n1 = > 6.00
• COc1ccccc1CNCc1nc(Nc2ccc(C(F)(F)F)nc2)c2ccc(-c3ncccc3C(F)(F)F)cc2n1 = > 6.00
• CCOCc1nc(Nc2ccc(C(C)C(F)(F)F)cc2)c2ccc(-c3ncccc3Cl)nc2n1 (centres unmarked) = > 6.00
• C[C@@H]1CN(Cc2nc(Nc3ccc(S(=O)(=O)C(F)(F)F)cc3)c3ccc(-c4ncccc4Cl)cc3n2)C[C@H](C)O1 = > 6.00
• CC1CN(Cc2nc(Nc3ccc(C(F)(F)F)cc3)c3ccc(-c4ncccc4Cl)cc3n2)CC(C)N1 (centres unmarked) = > 6.00
• COCc1nc(Nc2ccc(C(C)(C)C)cc2)c2ncc(-c3ncccc3C(F)(F)F)cc2n1 = > 6.00
• FC(F)(F)c1ccc(Nc2nc(CNCc3ccccc3)nc3cc(-c4ncccc4C(F)(F)F)ccc23)cn1 = > 6.00
• CCCN(CC)Cc1nc(Nc2ccc(S(=O)(=O)N3CCOCC3)cc2)c2ccc(-c3ncccc3C(F)(F)F)cc2n1 = > 6.00
• CC1(C)CN(Cc2nc(Nc3ccc(C(F)(F)F)cc3)c3ncc(-c4ncccc4C(F)(F)F)cc3n2)CCO1 = > 6.00
• CC(C)c1ccc(Nc2nc(CN3CCO[C@H](C)C3)nc3cc(-c4ncccc4C(F)(F)F)ccc23)cc1 = > 6.00
• CN(C)CCCOCc1nc(Nc2ccc(C(C)(C)C)cc2)c2ccc(-c3ncccc3C(F)(F)F)cc2n1 = > 6.00
• CC(C)[C@H](OCc1nc(Nc2ccc(C(C)(C)C)cc2)c2ccc(-c3ncccc3C(F)(F)F)cc2n1)C(=O)O = > 6.00
• COCc1cc(Nc2ccc(Cl)cc2)c2ccc(-c3ncccc3C(F)(F)F)nc2n1 = > 6.00
• FC(F)(F)c1cccc(Nc2nc(CN3CCOCC3)nc3cc(-c4ncccc4C(F)(F)F)cnc23)n1 = > 6.00
• CCOCCNC(=O)c1nc(Nc2ccc(C(F)(F)F)cc2)c2ccc(-c3ncccc3C(F)(F)F)nc2n1 = > 6.00
• FC(F)(F)c1ccc(Nc2nc(CN3CCCCCC3)nc3cc(-c4ncccc4C(F)(F)F)cnc23)cc1 = > 6.00

====

# measurement.target: human capsaicin receptor (VR1) (Homo sapiens, UniProt Q8NER1)
# method.summary: Capsaicin receptor binding assay ([3H]RTX competition, VR1-transfected HEK293 membranes)
pKi: −log10 of the molar value.
metric.name: pKi

* CC(C)(C)c1ccc(Nc2nc(CN3C[C@@H](O)C[C@@H]3C(=O)O)nc3cc(-c4ncccc4C(F)(F)F)ccc23)cc1 (stereo in doubt) | > 6.00
* CCOCc1nc(Nc2ccc(C(F)F)cc2)c2ccc(-c3ncccc3Cl)nc2n1 | > 6.00
* Cc1cccnc1-c1ccc2c(Nc3ccc(C(C)C)cc3)nc(COCC(C)C)nc2n1 | > 6.00
* CCOCc1nc(Nc2ccc(C(C)(C)C)nc2)c2ccc(-c3ncccc3Cl)cc2n1 | > 6.00

====

# measurement.target: human capsaicin receptor (VR1) (Homo sapiens, UniProt Q8NER1)
# method.summary: Capsaicin receptor binding assay ([3H]RTX competition, VR1-transfected HEK293 membranes)
pKi: −log10 of the molar value.
# reported pKi; entries follow
metric.name: pKi

* FC(F)(F)c1ccc(Nc2nc(C3CCN(Cc4ccncc4)CC3)nc3cc(-c4ncccc4C(F)(F)F)ccc23)cc1 [Compound 691] | > 6.00
* CC1(C)CN(Cc2nc(Nc3ccc(C(F)(F)F)cc3)c3ccc(-c4ncccc4Cl)cc3n2)CCO1 [Compound 740] | > 6.00
* CC1CCN(Cc2nc(Nc3ccc(C(F)(F)F)nc3)c3ccc(-c4ncccc4C(F)(F)F)cc3n2)CC1 [Compound 360] | > 6.00
* O=S(=O)(c1ccc(Nc2nc(CO)nc3cc(-c4ncccc4C(F)(F)F)cnc23)cc1)N1CCCCC1 [Compound 202] | > 6.00
* C=CCN(CC=C)Cc1nc(Nc2ccc(C(F)(F)F)nc2)c2ccc(-c3ncccc3C(F)(F)F)cc2n1 [Compound 372] | > 6.00
* CS(=O)(=O)N1CCc2cc(Nc3nc(COCc4ccccc4)nc4cc(-c5ncccc5C(F)(F)F)ccc34)ccc21 [Compound 44] | > 6.00
* CCOCc1nc(Nc2ccc(C3(C#N)CCC3)cc2)c2ccc(-c3ncccc3Cl)nc2n1 [Compound 150] | > 6.00
* COCc1nc(Nc2ccc(Cl)c(C(F)(F)F)c2)c2ccc(-c3ncccc3C(F)(F)F)nc2n1 [Compound 294] | > 6.00
* OC1CCCN(Cc2nc(Nc3ccc(C(F)(F)F)cc3)c3ccc(-c4ncccc4C(F)(F)F)cc3n2)C1 (stereo not drawn) [Compound 499] | > 6.00
* O=C(O)C1CCCCN1Cc1nc(Nc2ccc(C(F)(F)F)cc2)c2ccc(-c3ncccc3C(F)(F)F)cc2n1 (stereo not drawn) [Compound 737] | > 6.00
* CN(Cc1nc(Nc2ccc(C(F)(F)F)nc2)c2ccc(-c3ncccc3C(F)(F)F)cc2n1)C1CCc2ccccc21 (stereo not drawn) [Compound 349] | > 6.00
* O=C(O)[C@@H]1CCCN1Cc1nc(Nc2ccc(C(F)(F)F)cc2)c2ccc(-c3ncccc3C(F)(F)F)nc2n1 [Compound 751] | > 6.00
* CC(C)(C)c1ccc(Nc2nc(CN3CCC[C@H]3C(=O)O)nc3nc(-c4ncccc4C(F)(F)F)ccc23)cc1 [Compound 758] | > 6.00
* CCCN(CCC)C(=O)c1nc(Nc2ccc(C(F)(F)F)cc2)c2ccc(-c3ncccc3C(F)(F)F)nc2n1 [Compound 466] | > 6.00
* O=C(NCCN1CCOCC1)c1nc(Nc2ccc(C(F)(F)F)cc2)c2ccc(-c3ncccc3C(F)(F)F)nc2n1 [Compound 442] | > 6.00
